System: Staphylococcus epidermidis
Experiment: Antibacterial activity against erythromycin-resistant Staphylococcus epidermidis 19-11 assessed as inhibition of visible bacterial growth incubated for 18 hrs by broth microdilution method
Assay type: functional
RECORDED METRIC: MIC

Take a look at these entries with their results.
{"COMPOUND STRUCTURE STRING": "CC[C@H]1OC(=O)[C@H](C)C(=O)[C@H](C)[C@@H](O[C@@H]2O[C@H](C)C[C@H](N(C)C)[C@H]2O)[C@](C)(OC)C[C@@H](C)C(=O)[C@H](C)[C@H]2N(CCCOC(=O)Nc3ccc(C(F)(F)F)cc3)C(=O)O[C@]12C", "RECORDED METRIC": "MIC", "RESULT": "0.125 µg/mL"}
{"COMPOUND STRUCTURE STRING": "CC[C@H]1OC(=O)[C@H](C)C(=O)[C@H](C)[C@@H](O[C@@H]2O[C@H](C)C[C@H](N(C)C)[C@H]2O)[C@](C)(OC)C[C@@H](C)C(=O)[C@H](C)[C@H]2N(CCCOC(=O)Nc3ccc(C)cc3)C(=O)O[C@]12C", "RECORDED METRIC": "MIC", "RESULT": "0.125 µg/mL"}
{"COMPOUND STRUCTURE STRING": "CC[C@H]1OC(=O)[C@@](C)(F)C(=O)[C@H](C)[C@@H](O[C@@H]2O[C@H](C)C[C@H](N(C)C)[C@H]2O)[C@](C)(OC)C[C@@H](C)C(=O)[C@H](C)[C@H]2N(CCCOC(=O)Nc3ccc(Cl)cc3C)C(=O)O[C@]12C", "RECORDED METRIC": "MIC", "RESULT": "0.06 µg/mL"}

Report MIC for CC[C@H]1OC(=O)[C@@](C)(F)C(=O)[C@H](C)[C@@H](O[C@@H]2O[C@H](C)C[C@H](N(C)C)[C@H]2O)[C@](C)(OC)C[C@@H](C)C(=O)[C@H](C)[C@H]2N(CCCOC(=O)Nc3cccc(Cl)c3)C(=O)O[C@]12C tested on Staphylococcus epidermidis. < 0.03 µg/mL

Find MIC (Staphylococcus epidermidis) for the entry CC[C@H]1OC(=O)[C@@](C)(F)C(=O)[C@H](C)[C@@H](O[C@@H]2O[C@H](C)C[C@H](N(C)C)[C@H]2O)[C@](C)(OC)C[C@@H](C)C(=O)[C@H](C)[C@H]2N(CCCOC(=O)Nc3cccnc3)C(=O)O[C@]12C 0.125 µg/mL

Give Staphylococcus epidermidis MIC for CC[C@H]1OC(=O)[C@@](C)(F)C(=O)[C@H](C)[C@@H](O[C@@H]2O[C@H](C)C[C@H](N(C)C)[C@H]2O)[C@](C)(OC)C[C@@H](C)C(=O)[C@H](C)[C@H]2N(CCCOC(=O)Nc3ccc4ccccc4c3)C(=O)O[C@]12C < 0.03 µg/mL

Which MIC is reported with Staphylococcus epidermidis for this entry: CC[C@H]1OC(=O)[C@@](C)(F)C(=O)[C@H](C)[C@@H](O[C@@H]2O[C@H](C)C[C@H](N(C)C)[C@H]2O)[C@](C)(OC)C[C@@H](C)C(=O)[C@H](C)[C@H]2N(CCCOC(=O)Nc3ccc(Cl)cc3)C(=O)O[C@]12C ? < 0.03 µg/mL

Reported MIC for Staphylococcus epidermidis, given CC[C@H]1OC(=O)[C@@](C)(F)C(=O)[C@H](C)[C@@H](O[C@@H]2O[C@H](C)C[C@H](N(C)C)[C@H]2O)[C@](C)(OC)C[C@@H](C)C(=O)[C@H](C)[C@H]2N(CCCOC(=O)Nc3ccc(SC)cc3)C(=O)O[C@]12C ? 0.125 µg/mL

Under Staphylococcus epidermidis: MIC value of CC[C@H]1OC(=O)[C@@](C)(F)C(=O)[C@H](C)[C@@H](O[C@@H]2O[C@H](C)C[C@H](N(C)C)[C@H]2O)[C@](C)(OC)C[C@@H](C)C(=O)[C@H](C)[C@H]2N(CCCOC(=O)Nc3cccc(F)c3)C(=O)O[C@]12C ? < 0.03 µg/mL
